Experiment: NCI Yeast Anticancer Drug Screen. Data for the cln2 rad14 strain (AID 165);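 also: 0% = growth equal to vehicle treated cultures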
Details: S. cerevisiae cln2 rad14 strain, at 50.0 µM
About 79,000 compounds went through this panel and 15% of them were active in at least one assay; those are over-represented in the sample as a whole. Active and inactive are the calls of the source. Rule as the data show it: active = growth inhibition above about 70%; inactive = the rest.
Could you please pick one outcome from this set? active, inactive

Query: What is the recorded call for this compound in the test? CC(=O)OCC(CBr)(CBr)COC(C)=O
Result: inactive

Query: Given CCOc1ccc(NC(=O)C(Br)C(Br)C(=O)O)cc1 (stereo unspecified) , state the outcome it received in this test.
Result: active

Query: Give the logged outcome of this assay for the following compound: N#CC(=Nc1cc(Cl)cc(Cl)c1)C1=C(O)c2ccccc2C1=O
Result: inactive

Query: For S=C1CSc2c(ccc3ccccc23)N1 , which call appears in the assay record?
Result: inactive

Query: // outcome(item) with item = O=c1cc([O-])[n+](C2OC(CO)C(O)C2O)c2sccn12 (stereo unspecified)
Result: inactive

Others:
Query: Given CCCCCCCCCCCCCCNC(=O)CCl , state the outcome it received in this test.
Result: inactive

Query: Which result was noted for this compound in the test: NC(N)=NC(Cc1ccccc1)C(=O)O (stereo unspecified)
Result: inactive

Query: Could you check what this test reported for CC(C)=CCC[C@@H](C)C1[C@@H](OC2OC(CO)C(O)C(O)C2O)CC2(C)[C@@H]3CC(=O)C4C(C)(C)[C@@H](OC5OC(CO)C(O)C(O)C5O)CC[C@@]45C[C@@]35CC[C@]12C (stereo partly specified) ?
Result: inactive

Query: // outcome(item) with item = CCCCCCCCCCCCCCCCOC(=O)/C=C/c1ccccc1
Result: inactive

Query: What outcome does the record of this test show for COc1ccc(NC(=O)Nc2ccc(-c3ccc(NC(=O)Nc4ccc(OC)cc4)c(C)c3)cc2C)cc1 ?
Result: inactive

Query: For CCOC(=O)C(=O)C1C(=O)Nc2ccccc21 (stereo unspecified) , which call appears in the assay record?
Result: inactive

---

Test: NCI Yeast Anticancer Drug Screen. Data for the bub3 strain (AID 167)
Settings: S. cerevisiae bub3 mutant strain, at 50.0 µM, hits give high values
The panel holds about 79,000 compounds, 15% with a hit somewhere; the sample as a whole holds those more often. Active and inactive are the calls of the source. No stated cut-off is given here; in the data, active means growth inhibition above about 70%; inactive means the rest.
measured-attribute: growth inhibition

Query: Need growth inhibition, item O=C(/C=C/c1cccc(O)c1)c1ccccc1
Result: -5.6% (inactive)

Query: Quick one: growth inhibition for N#C/C(N)=C(\C#N)N=CN ?
Result: -22.3% (inactive)

Query: Item CCC(CC)(SC(C)C(N)=O)C(C)=O (configuration not stated) has what recorded growth inhibition?
Result: 5.75% (inactive)

Query: Field request: growth inhibition | item: CCOC(=O)C(CCCBr)(C(=O)OCC)N1C(=O)c2ccccc2C1=O
Result: 31.8% (inactive)

Query: Requested field: growth inhibition. Item: COc1ccc2c(c1)c(=O)c1c(NCCCN(C)C)ccc3ncn2c31
Result: -9.6% (inactive)

Query: Quick one: growth inhibition of CC1NNC(=S)NN1 ?
Result: 1.4% (inactive)

Next, consider the following molecule.
Query: Looking for the measured growth inhibition of O=[N+]([O-])c1ccc(SC2=NCCCN2C2CCCCC2)c(Cl)c1 , can you help?
Result: 12.6% (inactive)

---

The reader will find reported growth inhibition values listed item by item below.
Assay: NCI Yeast Anticancer Drug Screen. Data for the rad50 strain (AID 155);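 also: 0% = growth of vehicle-only cultures of the same strain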
Conditions: S. cerevisiae rad50 strain growth inhibition; at 50.0 µM; hits give high values
Compounds without any hit were thinned out: in the full panel of roughly 79,000, 15% have a hit.
Quick note: give the figure in %, leave out the unit.

Query: For the compound shown here, COC(=O)C1=C(\O)C[C@@]2(C)CC[C@@H](C(=O)OC)C2C/C=C\1C(=O)OC (stereo partly specified) , give the reported growth inhibition.
Result: -4.75

---
Query: I would be grateful if you could share the reported growth inhibition for CCc1nc(N)nc(N)c1-c1ccc2nnn(O)c2c1 .
Result: -11.8

Query: Endpoint output: growth inhibition of Cc1cccc(O)c1 . Value?
Result: -11.7

Query: Return reported growth inhibition; argument: CCCCCCCCCCCC(=O)Nc1ccc(C(C)C)cc1
Result: 4.75

Query: Recorded growth inhibition of O=C(OCC1OC(OC(=O)c2ccccc2)C(F)C1OC(=O)c1ccccc1)c1ccccc1 (stereo unspecified) , please.
Result: -2.65

Query: What value of growth inhibition has been recorded for this entry: CCCCCCCC(=O)NCCCC(C)Nc1cc(OC)cc2cccnc12 (stereo unspecified)
Result: 39.7

---

Experiment: NCI Yeast Anticancer Drug Screen. Data for the mec2-1 strain (AID 157)
Details: S. cerevisiae mec2-1 strain, at 50.0 µM, hits give high values
About 79,000 compounds went through this panel and 15% of them were active in at least one assay; those are over-represented in the sample as a whole.
measured-attribute: growth inhibition (%)
Answer with a number only, understood to be in %.

Query: What measured growth inhibition goes with COC(=O)c1ccc(N=NN(C)COC(C)=O)cc1 ?
Result: 12

Query: Look up growth inhibition for this molecule: COC(=O)c1[nH]c(=O)c(C#N)c(C(=O)OC)c1C(=O)c1cccnc1
Result: -3.55

Query: I have this molecule here, O=c1c2c(c(=O)c(=O)c1=O)Nc1ccccc1N2 , and I need its recorded growth inhibition.
Result: -6.15

Next:
Query: // growth inhibition lookup, key: O=C(c1ccc2c(c1)no[n+]2[O-])N(CCO)CCO
Result: 8.45

Query: Can you share its growth inhibition? I mean this molecule: OC1CC2c3ccccc3C1c1cccc[n+]12 (stereo unspecified)
Result: -9.85

Query: Please report the recorded growth inhibition for O=C([O-])c1ccc2c(c1)-c1nc-2nc2[n-]c(nc3nc(nc4[n-]c(n1)c1ccc(C(=O)[O-])cc41)-c1cc(C(=O)[O-])ccc1-3)c1ccc(C(=O)[O-])cc21.[Fe+2] .
Result: -0.5

Query: Requested read-out: growth inhibition. Entry: CCN(Cc1cccc(S(=O)(=O)O)c1)c1ccc(C(=C2C=CC(=[N+](CC)Cc3cccc(S(=O)(=O)O)c3)C=C2)c2ccc(O)cc2S(=O)(=O)O)cc1
Result: -127

Query: For CCOc1ccc(NC(=O)C(Br)C(Br)C(=O)O)cc1 (stereo unspecified) , what is its reported growth inhibition?
Result: 98.5

Query: State the recorded growth inhibition for this entry: COc1ccc(/C=C(/C#N)C(N)=O)c(OC)c1
Result: -15.8

Query: Given the entry CC(=O)C1C[C@]2(O)[C@@]3(C)CO[C@]2(C)CC1(O)C3 (stereo partly specified) , report its measured growth inhibition.
Result: 11.4

Query: State the recorded growth inhibition for this entry: CC(=O)Nc1ccc(Cc2ccc(O)cc2)cc1
Result: 6.65

Query: Report growth inhibition for CCO/C(C)=N/n1c(C)nc2[nH]ncc2c1=O please.
Result: -10.8

Query: Name the recorded growth inhibition for CC(=O)c1cccc(NC(=O)/C(=N\NC(=S)NN)C2C(=O)Nc3ccccc3S2=O)c1 (stereo unspecified) .
Result: -42.4

Query: Quick check: growth inhibition of CCOC(=O)c1ccc(NC(=O)c2cnccn2)cc1 ?
Result: 0.3

Query: Return reported growth inhibition; argument: CCN(CC)CCCC(C)Nc1c2ccc(Cl)cc2nc2c(Cl)cc(Cl)cc12 (stereo unspecified)
Result: 4.75

Query: Which value of growth inhibition has been reported for O=C1CCC2CCc3cccc1c32 (stereo unspecified) in the records?
Result: -7.75

---

Assay: NCI Yeast Anticancer Drug Screen. Data for the rad50 strain (AID 155);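 also: 0% = growth of vehicle-only cultures of the same strain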
Conditions: S. cerevisiae rad50 strain growth inhibition; at 50.0 µM; hits give high values
The panel holds about 79,000 compounds, 15% with a hit somewhere; the sample as a whole holds those more often. Activity calls are given as the source filed them. Cut-off read from the data, not from the text of the source: active = growth inhibition above about 70%; inactive = the rest.
Measured growth inhibition, listed per entry for reference.

Query: Param item = Cc1cc2ncn(C3CCCCO3)c2cc1C (stereo not given) ; retrieve measured growth inhibition.
Result: 8.25% (inactive)

Query: Item under review: CC(C)(C)CC(C(=O)O)[Si](C)(C)C (stereo not given) . Reported growth inhibition?
Result: -4.55% (inactive)

Query: Look up growth inhibition: O=c1[nH]c(=O)c2ncn(-c3ccc([N+](=O)[O-])cn3)c2[nH]1
Result: 20.8% (inactive)

---
Query: Item under review: Cc1ncc([N+](=O)[O-])n1CCNC(=O)CCCCn1ccnc1[N+](=O)[O-] . Reported growth inhibition?
Result: 5% (inactive)

Query: Reported growth inhibition for O=C(Cc1nccc2c1[nH]c1ccccc12)OC1C#CCSCC#C/C=C\1 (stereo not given) : what is it?
Result: -0.55% (inactive)

Query: Which measured growth inhibition value corresponds to CCN1c2ccccc2CC(CCN(C(C)C)C(C)C)(C(N)=O)c2ccccc21 (stereo not given) ?
Result: 40.9% (inactive)

Query: Request the reported growth inhibition associated with CC1=CC(=O)[C@@H](O)[C@]2(C)[C@H]3[C@@]4(O)OC[C@]35[C@H]([C@@H](CO)[C@H]4O)[C@@H](OC3OC(CO)C(O)C(O)C3O)C(=O)O[C@@H]5C[C@@H]12 (stereo not given in full)
Result: -9.55% (inactive)

The measurements presented in this section are drawn from PubChem BioAssay (NCI).
